Tested on: HL-60
test_details: cells
study_conditions: Homo sapiens, HL-60, 48 h
Description: Cytotoxicity against human HL60 cells after 48 hrs by MTT assay
assay_metric: IC50 (µM)

Check out these entries, answers already filled in.
compound | IC50 [µM]
O=C1Nc2ncccc2/C1=C/c1c[nH]c2ccc(F)cc12 | 48
Cc1[nH]c(/C=C2\C(=O)Nc3ncccc32)c(C)c1C(=O)NCCN1CCCCC1 | 30.2
CCc1cccc2c(/C=C3\C(=O)Nc4ncccc43)c[nH]c12 | 37.4
O=C1Nc2ncccc2/C1=C/c1c[nH]c2cc(F)ccc12 | 34.1
CN(C)CCNC(=O)c1ccc(/C=C2\C(=O)Nc3ccc(F)cc32)[nH]c1=O | 24.7
Cc1[nH]c(/C=C2\C(=O)Nc3ncccc32)c(C)c1C(=O)NCCN(C)C | 48.8
Cc1[nH]c(/C=C2\C(=O)Nc3cccnc32)c(C)c1C(=O)NCCN(C)C | 45.9
CN(C)CCNC(=O)c1ccc(/C=C2\C(=O)Nc3ncccc32)[nH]c1=O | 34.3

P = O=C1Nc2ccc(F)cc2/C1=C/c1c[nH]c2cc(F)ccc12
Q = CCc1cccc2c(/C=C3\C(=O)Nc4ccc(F)cc43)c[nH]c12
R = CCN(CC)CCNC(=O)c1c(C)[nH]c(/C=C2\C(=O)Nc3ccc(F)cc32)c1C
Please put the entries in order of rising IC50. Response field: labels, in requested order.
R, Q, P
(R: 15.5 µM, Q: 26.7 µM, P: 43.1 µM)

P = O=C1Nc2ccc(F)cc2/C1=C/c1ccc(C(=O)NCCN2CCCCC2)c(=O)[nH]1
Q = CCN(CC)CCNC(=O)c1ccc(/C=C2\C(=O)Nc3ccc(F)cc32)[nH]c1=O.Cl
Between the entries labeled P and Q , whose measured IC50 is lower? Indicate your choice by writing its label.
Q
(Q: 22.7 µM, P: 32.7 µM)

Data origin, for the record: ChEMBL document CHEMBL1914337
